The reported numbers originate from ChEMBL document CHEMBL4368933.

# assay-target: Leucine--tRNA ligase, cytoplasmic (Homo sapiens)
# test-details: Inhibition of Leucyl-tRNA synthetase-mediated mTORC1 signaling activation in human HEK293 cells assessed as reduction in leucine-induced S6K phosphorylation at 200 uM preincubated for 50 mins followed by leucine-stimulation and measured after 10 mins by Western blot analysis
# Assay type: cell-based
The source made the active and inactive calls. The rule behind the calls is not given here.
Classes used: active, inactive

structure-string: CC(C)C[C@H](Cl)C(=O)NS(=O)(=O)OC[C@H]1O[C@@H](n2cnc3c(N)ncnc32)[C@H](O)[C@@H]1O
classification: inactive

structure-string: CNc1ncnc2c1ncn2[C@@H]1O[C@H](COS(=O)(=O)NC(=O)[C@H](O)[C@@H](O)C(C)C)[C@@H](O)[C@H]1O
classification: inactive

structure-string: CC(C)C[C@H](S)C(=O)NS(=O)(=O)OC[C@H]1O[C@@H](n2cnc3c(=O)[nH]cnc32)[C@H](O)[C@@H]1O
classification: inactive

structure-string: Nc1ncnc2c1ncn2[C@@H]1O[C@H](COS(=O)(=O)NC(=O)c2cc(C3CC3)n[nH]2)[C@@H](O)[C@H]1O
classification: inactive

structure-string: CC(C)[C@@H](O)[C@H](O)C(=O)NS(=O)(=O)OC[C@H]1O[C@@H](n2cnc3c(N)ncnc32)C[C@@H]1O
classification: active

structure-string: CC(C)[C@@H](O)[C@H](O)C(=O)NS(=O)(=O)OC[C@H]1O[C@@H](n2cnc3c(N)ncnc32)[C@H](O)[C@@H]1O
classification: active

structure-string: CC(C)c1cc(C(=O)NS(=O)(=O)OC[C@H]2O[C@@H](n3cnc4c(N)nc(I)nc43)[C@H](O)[C@@H]2O)n(C)n1
classification: active

structure-string: CC(C)C[C@H](S)C(=O)NS(=O)(=O)OC[C@H]1O[C@@H](n2cnc3c(N)ncnc32)[C@H](O)[C@@H]1O
classification: active

structure-string: CC(C)C[C@H](N)C(=O)NS(=O)(=O)OC[C@H]1O[C@@H](n2cnc3c(N)ncnc32)C[C@@H]1O
classification: inactive

structure-string: CC(C)C[C@H](O)C(=O)NS(=O)(=O)OC[C@H]1O[C@@H](n2cnc3c(N)ncnc32)C[C@@H]1O
classification: inactive

structure-string: CC(C)c1cc(C(=O)NS(=O)(=O)OC[C@H]2O[C@@H](n3cnc4c(N)ncnc43)[C@H](O)[C@@H]2O)n(C)n1
classification: active

structure-string: CC(C)[C@@H](O)[C@H](O)C(=O)NS(=O)(=O)OC[C@H]1O[C@@H](n2cnc3c(N)ncnc32)[C@@H]2OC(=O)N[C@@H]21
classification: inactive

structure-string: CC(C)C[C@H](O)C(=O)NS(=O)(=O)OC[C@H]1O[C@@H](n2cnc3c(N)ncnc32)[C@H](O)[C@@H]1O
classification: active

structure-string: CC(C)C[C@H](N)C(=O)NS(=O)(=O)OC[C@H]1O[C@@H](n2cnc3c(N)ncnc32)[C@H](O)[C@@H]1N
classification: inactive

structure-string: CNc1ncnc2c1ncn2[C@@H]1O[C@H](COS(=O)(=O)NC(=O)[C@H](CC(C)C)OC)[C@@H](O)[C@H]1O
classification: inactive
